// provenance: PubChem BioAssay (NCI)

System: HCT-15 colon
TEST_METHOD_NOTES: NCI tumour cell line growth inhibition, 48 h
Some molecules, each annotated with its measured GI50.

Form field: reported GI50 of CC(C)(C)c1cn2cccc(C(=O)N3CCN(CC(=O)Nc4ccc(Cl)cc4C(=O)c4ccccc4Cl)CC3)c2n1
4.81 µM

Form field: reported GI50 of C=C(C)[C@@H]1CC[C@]2(C(=O)O)CC[C@]3(C)[C@H](CC[C@@H]4[C@@]5(C)C[C@@H](CC#Cc6ccc(Br)cc6)C(=O)C(C)(C)[C@@H]5CC[C@]43C)[C@@H]12
25.8 µM

Form field: reported GI50 of CCCCCCCCCCCCCC(=O)OC(/C=C/C(C)C)C(O)C(O)C(OC)C(=O)NC1CCCCNC1=O (stereo unspecified)
4.25 µM
